The reader will find reported IC50 values listed item by item below.
TARGET_OR_SYSTEM: T1, murine Ang-2, His-tagged (mouse, UniProt O35608 19-496)
T1 construct: also called mAng-2; mAng-2-His
T1 sequence (looked up): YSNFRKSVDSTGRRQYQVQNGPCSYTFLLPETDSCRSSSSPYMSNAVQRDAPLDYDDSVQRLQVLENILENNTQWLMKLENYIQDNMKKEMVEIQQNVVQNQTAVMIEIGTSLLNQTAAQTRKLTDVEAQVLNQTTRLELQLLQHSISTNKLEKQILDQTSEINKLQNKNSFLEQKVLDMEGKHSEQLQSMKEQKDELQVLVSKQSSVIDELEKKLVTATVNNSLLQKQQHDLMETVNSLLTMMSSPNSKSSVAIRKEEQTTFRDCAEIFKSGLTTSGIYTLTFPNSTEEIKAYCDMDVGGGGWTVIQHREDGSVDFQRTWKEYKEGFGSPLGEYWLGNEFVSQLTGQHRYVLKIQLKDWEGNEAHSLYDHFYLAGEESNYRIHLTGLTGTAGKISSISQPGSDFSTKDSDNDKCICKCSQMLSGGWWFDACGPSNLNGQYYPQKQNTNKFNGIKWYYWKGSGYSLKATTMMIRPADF
EXPERIMENTAL_PROTOCOL: Neutralization ELISA: antibody titrated against 1 nM Tie2-Fc on plate-bound mAng-2
The reply should be a number in nM, with the unit left off.

- BINDER: "Ab 535 (antibody, human IgG1, lambda, V domains shown, Fully human IgG1 lambda) VH: QVQLVQSGAEVKKPGSSVKVSCKASGGTFSSYAISWVRQAPGQGLEWMGGIIPIFGTANYAQKFQGRVTITADKSTSTAYMELSSLRSEDTAVYYCAAFSPFTETDAFDIWGQGTMVTVSS VL: QSVLTQPPSVSAAPGQKVTISCSGSNSNIGNNFVSWYQQLPGTAPKLLVYDNNKRPSGIPDRFSGSKSGTSATLGITGLQTGDEADYYCGTWDSSLSAAEVVFGGGTKLTVLG"
  UNITS_OF_MEASURE: "nM"
  IC50: 2.45

// recorded IC50 for Ab 540 (antibody, human IgG1, lambda, V domains shown, Fully human IgG1 lambda) VH: QVQLVQSGAEVKKPGSSVKVSCKASGGTFSSYAISWVRQAPGQGLEWMGGIIPILGIANYAQKFQGRVTITADKFTSTAYMELSSLGSEDTAVYYCARAVPGTEDAFDIWGQGTMVTVSS VL: QSVLTQPPSVSAAPGQKVTISCSGSSSNIGANYVSWYQQLPGTAPKLLIYNNNKRPSGIPDRFSGSKSDTSATLGITGLQTGDEADYYCGAWDSSLSASWVFGGGTKLTVLG : 1.53

// recorded IC50 for Ab 528 (antibody, human IgG1, lambda, V domains shown, Fully human IgG1 lambda) VH: QVQLVQSGAEVKKPGSSVKVSCKASGGTFSSYAISWVRQAPGQGLEWMGGIIPIFGTANYAQKFQGRVTITADESTSTAYMELSSLRSEDTAVYYCARGVVGDFDWLSFFDYWGQGTLVTVSS VL: SYELTQPPSVSVSPGQTASITCSGDKLGYTYTSWFQQKPGQSPVLVIFQDFKRPSGIPERFSGSNSGNTATLTISGTQAMDEADYYCQAWDSTTAVVFGTGTKVTVLG : 0.73

// recorded IC50 for Ab 531 (antibody, human IgG1, lambda, V domains shown, Fully human IgG1 lambda) VH: EVQLVQSGAEVKKPGSSVKVSCKASGGTFSSYAISWVRQAPGQGLEWMGGIIPILGIANYAQKFQGRVTITADKSTNTAYMELTSLTSDDTAVYYCARDREDTAMVFNYWGQGTLVTVSS VL: QSVLTQPPSVSAAPGQKVTVSCSGSSSNIGNNYVSWYQQLPGTAPKLLIYDNNKRPSGIPDRFSGSKSGTSATLGITGLQTGDEADYYCGTWDSSLSAFWVFGGGTKLTVLG : 1.67

Cited source: patent US20130142799A1
